Please provide measured MIC for the entries that follow.
# Test system: Staphylococcus epidermidis 3519
# measurement-notes: In-vitro antimicrobial activity primary screen (agar dilution MIC)
# Assay type: cell-based
# particulars: Staphylococcus epidermidis, 3519, 24 h, BHI agar, 20-24 h
Kindly answer with a numeric value in µg/mL, unit omitted.

Query :: Name the recorded MIC of the item CC[C@H]1OC(=O)[C@H](C)[C@@H](O[C@H]2C[C@@](C)(OC)[C@@H](N)[C@H](C)O2)[C@H](C)[C@@H](O[C@@H]2O[C@H](C)C[C@H](N(C)C)[C@H]2O)[C@](C)(O)C[C@@H](C)[C@@H]2O[C@@]1(C)C(=O)[C@H]2C [Example 14] in your answer.
Result :: 0.39

Query :: Name the recorded MIC of the item CC[C@H]1OC(=O)[C@H](C)[C@@H](O[C@H]2C[C@@](C)(OC)[C@@H](O)[C@H](C)O2)[C@H](C)[C@@H](O[C@@H]2O[C@H](C)C[C@H](N(C)C)[C@H]2O)[C@](C)(O)C[C@@H](C)C(=O)[C@H](C)[C@@H](O)[C@]1(C)O [Std, Erythromycin A, reference compound] in your answer.
Result :: 0.2

Query :: Name the recorded MIC of the item CC[C@H]1OC(=O)[C@H](C)[C@@H](O[C@H]2C[C@@](C)(OC)[C@H](NC(C)=O)[C@H](C)O2)[C@H](C)[C@@H](O[C@@H]2O[C@H](C)C[C@H](N(C)C)[C@H]2O)[C@](C)(O)C[C@@H](C)[C@@H]2O[C@@]1(C)C(=O)[C@H]2C [Example 10] in your answer.
Result :: 0.39

Query :: Name the recorded MIC of the item CC[C@H]1OC(=O)[C@H](C)[C@@H](O[C@H]2C[C@@](C)(OC)[C@@H](O)[C@H](C)O2)[C@H](C)[C@@H](O[C@@H]2O[C@H](C)C[C@H](N(C)C)[C@H]2O)[C@](C)(OC)C[C@@H](C)C2=C(C)C(=O)[C@]1(C)O2 [Example 27] in your answer.
Result :: 0.39

----------
# System: Streptococcus bovis A5169
# measurement-notes: In-vitro antimicrobial activity primary screen (agar dilution MIC)
# Format: cell-based
# particulars: Streptococcus equinus, BHI agar, 20-24 h, read-out: MIC
Please provide measured MIC for the entries that follow.
Kindly answer with a numeric value in µg/mL, unit omitted.

Query :: Name the recorded MIC of the item CC[C@H]1OC(=O)[C@H](C)[C@@H](O[C@H]2C[C@@](C)(OC)[C@@H](N)[C@H](C)O2)[C@H](C)[C@@H](O[C@@H]2O[C@H](C)C[C@H](N(C)C)[C@H]2O)[C@](C)(O)C[C@@H](C)[C@@H]2O[C@@]1(C)C(=O)[C@H]2C [Example 14] in your answer.
Result :: 0.1

Query :: Name the recorded MIC of the item CC[C@H]1OC(=O)[C@H](C)[C@@H](O[C@H]2C[C@@](C)(OC)[C@H](O)[C@H](C)O2)[C@H](C)[C@@H](O[C@@H]2O[C@H](C)C[C@H](N(C)C)[C@H]2O)[C@](C)(O)C[C@@H](C)[C@@H]2O[C@@]1(C)C(=O)[C@H]2C [Example 21] in your answer.
Result :: 0.01

Query :: Name the recorded MIC of the item CC[C@H]1OC(=O)[C@H](C)[C@@H](O[C@H]2C[C@@](C)(OC)[C@@H](N)[C@H](C)O2)[C@H](C)[C@@H](O[C@@H]2O[C@H](C)C[C@H](N(C)C)[C@H]2O)[C@](C)(O)C[C@@H](C)[C@@H]2O[C@@]1(C)[C@@H](N)[C@H]2C [Example 22] in your answer.
Result :: 0.01

----------
Please provide measured MIC for the entries that follow.
# System: Pseudomonas aeruginosa K799/61
# measurement-notes: In-vitro antimicrobial activity primary screen (agar dilution MIC)
# Format: cell-based
# particulars: Pseudomonas aeruginosa K799/61; BHI agar, 20-24 h; read-out: MIC
# Procedure: The antimicrobial spectra of several of the compounds of the present invention were tested as described below. Twelve petri dishes containing successive aqueous dilutions of the test compounds, mixed with 10 mL of sterilized Brain Heart Infusion (BHI) agar (Difco 0418-01-5), were prepared. […] After incubation, each plate was read. […]
Kindly answer with a numeric value in µg/mL, unit omitted.

Query :: Name the recorded MIC of the item CC[C@H]1OC(=O)[C@H](C)[C@@H](O[C@H]2C[C@@](C)(OC)[C@@H](OC(N)=O)[C@H](C)O2)[C@H](C)[C@@H](O[C@@H]2O[C@H](C)C[C@H](N(C)C)[C@H]2O)[C@](C)(O)C[C@@H](C)[C@@H]2O[C@@]1(C)C(=O)[C@H]2C [Example 31] in your answer.
Result :: 1.56

Query :: Name the recorded MIC of the item CC[C@H]1OC(=O)[C@H](C)[C@@H](O[C@H]2C[C@@](C)(OC)[C@@H](OC(N)=O)[C@H](C)O2)[C@H](C)[C@@H](O[C@@H]2O[C@H](C)C[C@H](N(C)C)[C@H]2O)[C@](C)(O)C[C@@H](C)[C@@H]2O[C@@]1(C)[C@@H](O)[C@H]2C [Example 17] in your answer.
Result :: 0.78

Query :: Name the recorded MIC of the item CC[C@H]1OC(=O)[C@H](C)[C@@H](O[C@H]2C[C@@](C)(OC)[C@@H](O)[C@H](C)O2)[C@H](C)[C@@H](O[C@@H]2O[C@H](C)C[C@H](N(C)C)[C@H]2O)[C@](C)(O)C[C@@H](C)[C@@H]2O[C@@]1(C)[C@@H](O)[C@H]2C [Example 4] in your answer.
Result :: 0.39

Query :: Name the recorded MIC of the item CC[C@H]1OC(=O)[C@H](C)[C@@H](O[C@H]2C[C@@](C)(OC)[C@H](NC(=O)OCc3ccccc3)[C@H](C)O2)[C@H](C)[C@@H](O[C@@H]2O[C@H](C)C[C@H](N(C)C)[C@H]2O)[C@](C)(O)C[C@@H](C)[C@@H]2O[C@@]1(C)C(=O)[C@H]2C [Example 7] in your answer.
Result :: 0.78

----------
# System: Escherichia coli SS
# measurement-notes: In-vitro antimicrobial activity primary screen (agar dilution MIC)
# Format: cell-based
# particulars: Escherichia coli, 24 h, BHI agar, 20-24 h
Please provide measured MIC for the entries that follow.
Kindly answer with a numeric value in µg/mL, unit omitted.

Query :: Name the recorded MIC of the item "CC[C@H]1OC(=O)[C@H](C)[C@@H](O[C@H]2C[C@@](C)(OC)[C@@H](NC(N)=O)[C@H](C)O2)[C@H](C)[C@@H](O[C@@H]2O[C@H](C)C[C@H](N(C)C)[C@H]2O)[C@](C)(O)C[C@@H](C)[C@@H]2O[C@@]1(C)C(=O)[C@H]2C" in your answer.
Result :: 0.2

Query :: Name the recorded MIC of the item "CC[C@H]1OC(=O)[C@H](C)[C@@H](O[C@H]2C[C@@](C)(OC)[C@@H](NS(C)(=O)=O)[C@H](C)O2)[C@H](C)[C@@H](O[C@@H]2O[C@H](C)C[C@H](N(C)C)[C@H]2O)[C@](C)(O)C[C@@H](C)[C@@H]2O[C@@]1(C)C(=O)[C@H]2C" in your answer.
Result :: 0.39

Query :: Name the recorded MIC of the item "CC[C@H]1OC(=O)[C@H](C)[C@@H](O[C@H]2C[C@@](C)(OC)[C@@H](OC(N)=O)[C@H](C)O2)[C@H](C)[C@@H](O[C@@H]2O[C@H](C)C[C@H](N(C)C)[C@H]2O)[C@](C)(O)C[C@@H](C)[C@@H]2O[C@@]1(C)[C@@H](O)[C@H]2C" in your answer.
Result :: 0.2

Query :: Name the recorded MIC of the item "CC[C@H]1OC(=O)[C@H](C)[C@@H](O[C@H]2C[C@@](C)(OC)[C@@H](OC(N)=O)[C@H](C)O2)[C@H](C)[C@@H](O[C@@H]2O[C@H](C)C[C@H](N(C)C)[C@H]2O)[C@](C)(O)C[C@@H](C)[C@@H]2O[C@@]1(C)C(=O)[C@H]2C" in your answer.
Result :: 0.2

Query :: Name the recorded MIC of the item "CC[C@H]1OC(=O)[C@H](C)[C@@H](O[C@H]2C[C@@](C)(OC)[C@@H](O)[C@H](C)O2)[C@H](C)[C@@H](O[C@@H]2O[C@H](C)C[C@H](N(C)C)[C@H]2O)[C@](C)(O)C[C@@H](C)[C@@H]2O[C@@]1(C)[C@@H](O)[C@H]2C" in your answer.
Result :: 0.2

Query :: Name the recorded MIC of the item "CC[C@H]1OC(=O)[C@H](C)[C@@H](O[C@H]2C[C@@](C)(OC)[C@@H](N)[C@H](C)O2)[C@H](C)[C@@H](O[C@@H]2O[C@H](C)C[C@H](N(C)C)[C@H]2O)[C@](C)(O)C[C@@H](C)[C@@H]2O[C@@]1(C)C(=O)[C@H]2C" in your answer.
Result :: 0.2

Query :: Name the recorded MIC of the item CC[C@H]1OC(=O)[C@H](C)[C@@H](O[C@H]2C[C@@](C)(OC)[C@@H](O)[C@H](C)O2)[C@H](C)[C@@H](O[C@@H]2O[C@H](C)C[C@H](N(C)C)[C@H]2O)[C@](C)(OC)C[C@@H](C)[C@@H]2O[C@@]1(C)[C@@H](O)[C@H]2C [Example 28A] in your answer.
Result :: 0.2
